experiment-summary: Phase 1 Part B multiple ascending dose (MAD), blood pressure, healthy participants
Assay type: in vivo, human
run-parameters: MAD 125 mg BID, D 15 336 h
Experimental: The study was performed in 3 parts in 112 healthy male and female participants, including 24 Japanese participants. Female participants were to be not of childbearing potential. […]
value-type: Mean DBP (mmHg)
Kindly answer with a numeric value in mmHg, unit omitted.

Can you look up the measured Mean DBP of CCCN(C)C(=O)OCc1c(-c2ccc(O[C@H]3CCC[C@H](C(=O)O)C3)c(C)n2)nnn1C [Compound A] for me? 63
